Value source: patent US7998940B2

Test system: full length human vWF (SEQ ID NO 7)
Assay: dot blot KD determination and extent of binding, full length human vWF;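 note: dot blot binding of aptamers to full length human vWF across a protein titration, incubated 30 minutes at room temperature in 1x DPBS with BSA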
Settings: Phase 1 modification; full length human vWF, dot blot, 8 point protein titration; read-out: KD
pKd: −log10 of the molar value. Oligonucleotides are written 5' to 3', each unit as a sugar letter and its base; * is a phosphorothioate linkage, no mark a phosphodiester; rarer units and linkages stand in square brackets, end groups in braces. Plain capitals give the bases only. [invdT] = inverted (3'-3') thymidine; d = 2'-deoxy (DNA); m = 2'-O-methyl
pKd by entry:
quantity: pKd

{"columns": ["substance", "subject-of-test", "quantity", "experimental-result"],
 "data": [
  ["ARC1115: ARC1029 with PEG spacer replaced with a short oligonucleotide sequence, dTdTdC (DNA GGCGTGCAGTGCCTTCGGCCGTGCGGTGCCTCCGTCACGCC; unmodified DNA)", "full length human vWF (SEQ ID NO 7)", "pKd", 8.70],
  ["ARC1228: ARC1172 with one residue replaced by 2'-O methyl residue (dGdGdCdGdTdGdCdAdGdTdGdCdCdTdTdCdGdGdCdCdGdTdGdCdGdGdTdGdCdCdTdCdCdGmUdCdAdCdGdCdC[invdT]; aptamer)", "full length human vWF (SEQ ID NO 7)", "pKd", 8.70],
  ["ARC1218: ARC1172 with one residue replaced by 2'-O methyl residue (DNA dGdGdCdGdTdGdCdAdGdTdGdCdCdTdTdCdGdGdCdCdGdTdGdCmGdGdTdGdCdCdTdCdCdGdTdCdAdCdGdCdC[invdT]; aptamer)", "full length human vWF (SEQ ID NO 7)", "pKd", 7.49],
  ["ARC1217: ARC1172 with one residue replaced by 2'-O methyl residue (DNA dGdGdCdGdTdGdCdAdGdTdGdCdCdTdTdCdGdGdCdCdGdTdGmCdGdGdTdGdCdCdTdCdCdGdTdCdAdCdGdCdC[invdT]; aptamer)", "full length human vWF (SEQ ID NO 7)", "pKd", 7.85],
  ["ARC1199: ARC1172 with one residue replaced by 2'-O methyl residue (DNA dGdGdCdGdTmGdCdAdGdTdGdCdCdTdTdCdGdGdCdCdGdTdGdCdGdGdTdGdCdCdTdCdCdGdTdCdAdCdGdCdC[invdT]; aptamer)", "full length human vWF (SEQ ID NO 7)", "pKd", 7.72],
  ["ARC1240: ARC1172 with composite 2'-O methyl replacements in the stem regions (dGdGdCdGdTdGdCdAdGdTmGmCmCdTdTdCmGmGmCdCdGdTdGdCdGdGdTdGdCdCdTdCdCdGdTdCdAdCdGdCdC[invdT]; aptamer)", "full length human vWF (SEQ ID NO 7)", "pKd", 8.40],
  ["ARC1219: ARC1172 with one residue replaced by 2'-O methyl residue (DNA dGdGdCdGdTdGdCdAdGdTdGdCdCdTdTdCdGdGdCdCdGdTdGdCdGmGdTdGdCdCdTdCdCdGdTdCdAdCdGdCdC[invdT]; aptamer)", "full length human vWF (SEQ ID NO 7)", "pKd", 8.52],
  ["ARC1229: ARC1172 with one residue replaced by 2'-O methyl residue (dGdGdCdGdTdGdCdAdGdTdGdCdCdTdTdCdGdGdCdCdGdTdGdCdGdGdTdGdCdCdTdCdCdGdTmCdAdCdGdCdC[invdT]; aptamer)", "full length human vWF (SEQ ID NO 7)", "pKd", 8.30]
]}
